Molecular target: T1, ZFP SBS#316 (synthetic)
T1 chain: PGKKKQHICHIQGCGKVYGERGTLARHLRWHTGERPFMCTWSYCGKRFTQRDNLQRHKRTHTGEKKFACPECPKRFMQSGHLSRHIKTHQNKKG
Assay: EMSA
Conditions: tags: MBP fusion
measurement_name: Kd (µM)
Numbers only, in µM.

For reference, reported Kd for GGAGATGCC (dsDNA) DNA 1: GGAGATGCC DNA 2: GGCATCTCC stands at 3
